Origin of values: PubChem BioAssay (NCI)

tested on: A498 renal; assay: NCI-60 one-dose screen, 48 h; settings: 10 µM unless noted
About 83,000 compounds went through this panel and 20% of them were active in at least one assay; those are over-represented in the sample as a whole. Calls of active or inactive are those of the source. The calls were made as follows: active = growth percent below 10; inactive = the rest.
Permitted responses: yes for active, no for inactive

Known results for compounds:
Which outcome did this test record for the compound COc1ccc2nc(NC(=O)CSc3nnc4n3S(=O)(=O)c3ccccc3N4c3ccccc3)sc2c1 ?
no

Entry CCCCCC(=O)Oc1ccc(/C(=C(\C)c2ccc(OC)cc2)c2ccc(OCCN3CCCCC3)cc2)cc1 please
no

// next record CN(C)[C@@H]1C(=O)C(C(=O)NCc2nc3[nH]cnc(=S)c3[nH]2)=C(O)[C@@]2(O)C(=O)C3=C(O)c4c(O)cccc4[C@@](C)(O)[C@H]3C[C@@H]12
no

Similarly, COc1ccc(C(=O)c2sc3nc(C)cc(C)c3c2N)cc1OC ?
no

Follow-up entry: O=C1/C(=C/c2ccccc2)SC(=S)N1CCc1ccc(O)cc1
no

Do the same for O=C(COc1ccc(/C=C2\CSc3ccccc3C2=O)cc1)Nc1nccs1 please
no

Same read-out for CSc1nc(Nc2cccc(NC(=O)/C(C#N)=C/c3c(Cl)cccc3Cl)c2)c(C#N)c(-c2cccc([N+](=O)[O-])c2)n1 ?
no

Now consider CSc1ccc(-c2ccccc(=O)c2O)cc1 .
no

---
Which outcome was entered for the compound C(=N/Nc1ncc(-c2cc3cc(-c4ccccc4)ccc3o2)s1)/c1cccs1 in this test?
no

Try the compound Cc1nc2ccccc2n1C(=O)C[C@@H]1NC(=S)NC1=O
no

What do you have for COc1cc2c(cc1O)CC[C@@H]1[C@@H]2CC[C@]2(C)[C@@H](NCCN(C)C)CC[C@@H]12 ?
yes

Please give the result for CC(=O)O[C@H]1[C@@H]2OC(=O)C(CSc3ccccc3)[C@@H]2C[C@H]2O[C@]2(C)CC/C=C(\C)CCC[C@@H]1C (some centres undefined) too.
no

Similarly, CCN1CCN(c2nc(NCCNc3ccnc4cc(Cl)ccc34)c3ccccc3n2)CC1 ?
no

Consider next the compound O=C(O)c1c(=O)cccc2ssc12 in the same way.
yes

Follow-up entry: CCOC(=O)c1cc(C(=O)c2ccc(O)c(O)c2)n2ccc(-c3ccn4c(C(=O)c5ccc(O)c(O)c5)cc(C(=O)OCC)c4c3)cc12
no

Same read-out for Cc1cc(N2CCN(c3ccnc4cc(Cl)ccc34)CC2)nc(NC2CCCCC2)n1 ?
yes

Also COc1ccc(S(=O)(=O)N2CCCCCC2)cc1NC(=O)c1[nH]c(C)c2c1CCCCC2=O ?
yes

====

tested on: HCT-15 colon; test: NCI-60 one-dose screen, 48 h (100 = growth as untreated, 0 = no growth, -100 = all killed); settings: 10 µM unless noted
Compounds without any hit were thinned out: in the full panel of roughly 83,000, 20% have a hit.
reportedEndpoint: growth (%)
Give just the numeric value; % need not be written.

I am curious: what growth value has been reported for O=C1c2cc3c(cc2-c2c1c1ccc(Cl)cc1c(=O)n2CCCN1CCOCC1)OCO3 ?
80.9

Param item: COc1ccc(-c2nnc(SCC(=O)c3ccc(Cl)cc3)o2)cc1
104

Another molecule to look at: FC(F)(F)c1nc2c(NCc3ccc(-c4ccccc4)cc3)cccc2[nH]1
68.4

Further cases:
Field request: growth | item: COc1ccc(/C=C/C(=O)c2ccc(O)c(CN3CCN(c4cc5c(cc4F)c(=O)c(C(=O)O)cn5C4CC4)CC3)c2)cc1
19.1

Record: CN(C)S(=O)(=O)c1cccc(-c2nc3sc4c(c3c(=O)[nH]2)CCCC4)c1
115

Then what about the molecule O=S(=O)(Nc1ccc(Br)c(Cl)c1)c1ccc(-c2cnc(C3CC3)o2)cc1 ?
20.7

Can you check NC(=NCCCOc1ccc(Cl)cc1)Nc1ccc(C(F)(F)F)cc1 next?
54

====

test system: OVCAR-8 ovarian; assay: NCI-60 one-dose screen, 48 h (100 = growth as untreated, 0 = no growth, -100 = all killed); conditions: 10 µM unless noted
The panel holds about 83,000 compounds, 20% with a hit somewhere; the sample as a whole holds those more often.
Rule for this label: 1 means growth is less than 50%; -1 means growth is at least 50%.

Identify whether the compound CC[C@]1(O)C[C@@H]2CN(CCc3c([nH]c4ccccc34)[C@@](C(=O)OC)(c3cc4c(cc3OC)N(C)[C@H]3[C@@](O)(C(N)=O)[C@H](O)[C@]5(CC)[C@@H]6C[C@@H]6CN6CC[C@]43[C@@H]65)C2)C1 records growth below 50%.
1

New cases:
Please state whether growth is below 50% for CN(CCCCCl)P(=O)(OCc1ccc([N+](=O)[O-])o1)C(F)(F)c1ccc(CC(=O)NC[C@@H](O)/C=C\[C@@H](O)[C@H](CO)Cc2ccccc2)cc1 (some centres not stated)
-1

====

test system: KM12 colon; test: NCI-60 one-dose screen, 48 h; conditions: 10 µM unless noted
This is part of a sample that, as a whole, favours compounds with a hit. Of some 83,000 tested, about 20% had one in any assay. Active and inactive are the calls of the source. How the source made its calls: active means growth percent below 10; inactive means the rest.
Result category, one only: active, inactive

These recorded examples may help you get a feel for the data.
Look up the recorded call for CCN1CCC2(CC1)NC(=O)c1c(c3ccc(Cl)c(Cl)c3n1C)C2C#N (centres undefined) in this test.
inactive

Moving on to the next compound: COc1cccc2c1C(=O)c1c(O)c3c(c(O)c1C2=O)C[C@](O)(C(=O)CO)C[C@H]3O[C@@H]1C[C@@H](NC(=O)CCCN(C)C2(c3ccc(F)cc3)CC3CCC2C3)[C@H](O)[C@@H](C)O1 (some centres undefined)
active

Now this one: Cc1cc(N2CCN(C)CC2)nc(NC2CCCC(Nc3ccnc4cc(Cl)ccc34)C2)n1 (centres undefined)
inactive

# evaluate next
Called result for CCCCN1CCCn2c1nc1c2c(=O)n(CCC)c(=O)n1CCC
inactive

====

system: U251 CNS; test: NCI-60 one-dose screen, 48 h; conditions: 10 µM unless noted
The panel holds about 83,000 compounds, 20% with a hit somewhere; the sample as a whole holds those more often. Calls of active or inactive are those of the source. The calls were made as follows: active = growth percent below 10; inactive = the rest.
Pick one and only one: true = active, false = inactive

// return assay outcome for CC/C=C\C[C@H](O)C/C=C1/C(=O)C=C[C@@]1(C)C/C=C\CCCC(=O)OC
false

What do you get for CCCCC/C(C=C(C#N)C#N)=C/c1ccccc1 ?
false

Field entry: O=C1NC(=Nc2ccc(O)cc2)S/C1=C\c1cccc(Cl)c1
false

Input COc1ccc(C(=O)c2sc3nc(C)cc(C)c3c2N)cc1OC
false

What about O=C(CN(C(=O)Cn1c(=O)n2nnnc2c2ccccc21)c1ccccc1C(F)(F)F)Nc1ccc(C(F)(F)F)cc1 ?
false

Next:
Just curious, what result did CCCCC(=O)OCC1OC(n2cnc3c(=S)nc[nH]c32)C(OC(=O)CCCC)C1OC(=O)CCCC (stereo unspecified) get here?
false

Another compound: Cc1ccccc1COc1ccc(-c2onc(C)c2-c2ccc(Cl)cc2)cc1
false

Next compound: CC(C)(C)c1cc(C(C)(C)C)cc(S(=O)(=O)Nc2cc3ccccc3cc2C(=O)NCCN)c1
true

What about O=C(/C=C/c1cc(CN2CCOCC2)c(O)c2ncccc12)c1cc(CN2CCOCC2)c(O)c2ncccc12 ?
true

Same for CCOc1nc(-c2ccccc2)cc2c(O)c(C(=O)O)[nH]c(=O)c12
false

Okay, and CC1=C[C@H]2c3c(c(O)c(O)c4oc5c(C)cccc5c(=O)c34)[C@H](c3cc(O)c(O)c4oc5c(C)cccc5c(=O)c34)[C@H]2C(C)(C)C1 ?
false

Would you mind doing COc1ccc(NC(=O)c2ccc(/C=C/C(=O)c3ncc[nH]3)cc2)cc1 as well?
false

Cool, now CCc1nc(N)nc(N)c1C#CC(C)c1cc(-c2ccnc(C)c2)c2oc(C)nc2c1 (stereo unspecified)
true

Next compound up: Cn1c(=O)[nH]c(=O)c2nc(CCC(=O)NCCC(=O)O)c(=O)[nH]c21
false

Try this compound next: CN1CCN(c2nc(NCCCCNc3ccnc4cc(Cl)ccc34)c3ccccc3n2)CC1
true

Record: COC(=O)c1ccc(Cn2cnc3c(N)ncnc32)cc1
false

Again, but for CCOC(=O)c1sc2nc(-c3cccc(OC)c3)nc(N3CCOCC3)c2c1C
false

Moving on to CCCOc1cc2ccccc2cc1C(=O)Nc1nc(N)c2c(ccc3nccc32)[nH]1
true

Consider next the compound COc1cc2c(cc1OC)C(Sc1ccc(SC)cc1)c1c(nc(N)c(C#N)c1N)O2 (stereo unspecified) in the same way.
true

Query CCCOc1cc2ccccc2cc1C(=O)Nc1nc(NC)c2c(ccc3nccc32)[nH]1 next
true

Quick one: CN1CCN(CCCOc2cccc3nc(Nc4cc(Cl)cc(Cl)c4)ccc23)CC1
true

Also, O=c1nc2oc3ccc4ccccc4c3cc-2s1 please.
false

And for O=C1C=CC(=O)N1c1ccc2c(c1)Cc1cc(F)ccc1-2 ?
false
